Molecular target: Vhr1 (UniProt P40522)
Sequence: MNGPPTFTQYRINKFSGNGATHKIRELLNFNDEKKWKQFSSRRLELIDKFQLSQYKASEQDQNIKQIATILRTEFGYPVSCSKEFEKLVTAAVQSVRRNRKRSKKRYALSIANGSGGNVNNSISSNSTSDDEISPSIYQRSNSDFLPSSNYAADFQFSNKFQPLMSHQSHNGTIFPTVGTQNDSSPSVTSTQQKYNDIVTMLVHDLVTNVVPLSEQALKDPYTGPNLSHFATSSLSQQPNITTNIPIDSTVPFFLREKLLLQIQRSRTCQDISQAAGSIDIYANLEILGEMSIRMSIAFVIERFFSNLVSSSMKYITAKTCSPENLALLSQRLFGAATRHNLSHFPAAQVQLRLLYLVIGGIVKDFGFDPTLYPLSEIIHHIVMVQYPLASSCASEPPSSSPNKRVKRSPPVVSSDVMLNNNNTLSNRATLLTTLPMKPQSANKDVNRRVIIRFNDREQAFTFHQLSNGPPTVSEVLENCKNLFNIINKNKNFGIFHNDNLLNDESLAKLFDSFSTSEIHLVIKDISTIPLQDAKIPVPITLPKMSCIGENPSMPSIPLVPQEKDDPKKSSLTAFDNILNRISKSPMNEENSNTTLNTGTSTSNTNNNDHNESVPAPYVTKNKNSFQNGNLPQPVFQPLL
Experiment: PBM E-score (8-mer binding enrichment) (E-score (-0.5 to 0.5)); higher = stronger / more preferred TF binding
Conditions: protein concentration: 200 nM; construct: GST-full length
The full ranking holds about 33,000 sequences; the median of “E-score (-0.5 to 0.5)” is about -0.012, and the highest 2% start at about 0.27. The full list was thinned out, with the highest values kept by preference.
Rule: PBM E-score under 0.05 gives Not met, otherwise Met.

| Sequence data | Qualitative label |
| --- | --- |
| ACTCATAC | Met |
| CATCATAG | Met |
| CCTATCTA | Not met |
| AATCATAG | Met |
| AATCATAA | Met |
| AATCAAAT | Not met |
| CCTCATAC | Not met |
| CGTAATGA | Not met |
| CAAAACAA | Not met |
| CGGTTGAC | Not met |
| GATCATAC | Met |

---

Molecular target: Vhr1 (UniProt P40522)
Sequence: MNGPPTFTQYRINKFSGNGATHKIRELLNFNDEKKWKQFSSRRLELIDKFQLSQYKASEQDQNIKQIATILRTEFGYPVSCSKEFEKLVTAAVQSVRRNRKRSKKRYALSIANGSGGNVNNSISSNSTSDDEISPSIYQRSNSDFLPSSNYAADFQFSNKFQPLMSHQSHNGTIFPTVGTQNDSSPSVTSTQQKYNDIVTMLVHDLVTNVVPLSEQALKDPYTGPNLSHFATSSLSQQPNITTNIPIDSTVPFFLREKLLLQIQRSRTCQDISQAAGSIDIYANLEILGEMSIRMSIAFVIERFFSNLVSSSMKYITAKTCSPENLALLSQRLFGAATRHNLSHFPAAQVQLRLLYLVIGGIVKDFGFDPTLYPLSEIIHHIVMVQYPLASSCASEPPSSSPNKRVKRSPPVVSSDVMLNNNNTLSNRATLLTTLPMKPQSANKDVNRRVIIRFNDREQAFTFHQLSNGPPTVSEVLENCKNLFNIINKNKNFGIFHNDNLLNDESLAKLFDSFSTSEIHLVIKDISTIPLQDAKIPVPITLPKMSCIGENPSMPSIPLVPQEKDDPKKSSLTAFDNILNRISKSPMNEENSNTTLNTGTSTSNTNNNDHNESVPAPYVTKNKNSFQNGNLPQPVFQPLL
Assay: PBM E-score (8-mer binding enrichment) (E-score (-0.5 to 0.5)); higher = stronger / more preferred TF binding
Settings: protein concentration: 200 nM; construct: GST-full length
Over roughly 33,000 sequences, “E-score (-0.5 to 0.5)” has its median near -0.012; the highest 2% begin near 0.27. This is one part of a sample in which the highest values are shown more often than they occur.
Endpoint name: PBM E-score

| Sequence data | Endpoint name | Measured number |
| --- | --- | --- |
| AGAAGCGA | PBM E-score | -0.0198 |
| CGACTACG | PBM E-score | 0.188 |
| CATCATAA | PBM E-score | 0.133 |
| GATCATGC | PBM E-score | 0.0952 |
| CTTAACCC | PBM E-score | -0.213 |
| CAACATGA | PBM E-score | 0.3 |
| AACTGGGT | PBM E-score | -0.041 |
| AATCACGA | PBM E-score | 0.159 |
| AAGAGGAT | PBM E-score | -0.0743 |
| TAGTTGAA | PBM E-score | 0.134 |
| ATCAGGCC | PBM E-score | -0.0546 |
| CATCATGC | PBM E-score | 0.201 |
| CACCCGTC | PBM E-score | 0.0428 |
| AGACTACA | PBM E-score | 0.17 |
| AAGCTACC | PBM E-score | 0.00426 |
| GGACTAAA | PBM E-score | -0.248 |
| AAGATCAG | PBM E-score | 0.0101 |
| AGGCTTCC | PBM E-score | -0.119 |
| CAACATGC | PBM E-score | 0.15 |
| AGGCTACA | PBM E-score | 0.0844 |
| CTTGCGGC | PBM E-score | -0.0654 |
| AATCATGC | PBM E-score | 0.304 |
